- ASSAY SYSTEM: PI3Kβ (Homo sapiens)
- Sequence (P42338 whole entry): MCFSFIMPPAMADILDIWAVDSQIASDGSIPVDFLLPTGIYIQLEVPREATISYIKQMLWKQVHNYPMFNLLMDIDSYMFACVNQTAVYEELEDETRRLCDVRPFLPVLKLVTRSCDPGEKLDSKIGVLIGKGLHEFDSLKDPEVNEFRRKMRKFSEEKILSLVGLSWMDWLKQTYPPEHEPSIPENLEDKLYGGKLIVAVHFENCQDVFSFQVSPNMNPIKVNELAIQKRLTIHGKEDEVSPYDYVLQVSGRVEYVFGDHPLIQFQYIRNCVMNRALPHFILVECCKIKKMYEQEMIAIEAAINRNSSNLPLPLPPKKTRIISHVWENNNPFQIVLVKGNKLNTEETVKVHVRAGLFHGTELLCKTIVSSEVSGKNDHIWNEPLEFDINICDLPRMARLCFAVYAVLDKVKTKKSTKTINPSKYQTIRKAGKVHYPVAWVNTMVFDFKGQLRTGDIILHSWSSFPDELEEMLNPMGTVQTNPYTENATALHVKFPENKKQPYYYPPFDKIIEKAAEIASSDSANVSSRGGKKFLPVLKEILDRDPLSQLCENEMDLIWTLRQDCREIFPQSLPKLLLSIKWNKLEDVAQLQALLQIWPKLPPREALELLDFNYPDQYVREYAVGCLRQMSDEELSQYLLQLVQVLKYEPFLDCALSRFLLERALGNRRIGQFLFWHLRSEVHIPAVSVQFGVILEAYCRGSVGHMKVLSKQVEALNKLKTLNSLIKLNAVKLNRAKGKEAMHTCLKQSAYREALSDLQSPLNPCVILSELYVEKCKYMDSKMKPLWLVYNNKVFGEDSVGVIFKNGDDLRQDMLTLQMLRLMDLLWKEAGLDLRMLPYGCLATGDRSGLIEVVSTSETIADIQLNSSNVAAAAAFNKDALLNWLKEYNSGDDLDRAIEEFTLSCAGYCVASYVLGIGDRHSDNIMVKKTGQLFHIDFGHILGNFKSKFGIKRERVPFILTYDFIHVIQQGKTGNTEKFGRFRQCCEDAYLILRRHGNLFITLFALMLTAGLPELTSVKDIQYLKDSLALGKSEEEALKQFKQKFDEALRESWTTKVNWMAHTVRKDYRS
- Sequence (P27986 whole entry partner): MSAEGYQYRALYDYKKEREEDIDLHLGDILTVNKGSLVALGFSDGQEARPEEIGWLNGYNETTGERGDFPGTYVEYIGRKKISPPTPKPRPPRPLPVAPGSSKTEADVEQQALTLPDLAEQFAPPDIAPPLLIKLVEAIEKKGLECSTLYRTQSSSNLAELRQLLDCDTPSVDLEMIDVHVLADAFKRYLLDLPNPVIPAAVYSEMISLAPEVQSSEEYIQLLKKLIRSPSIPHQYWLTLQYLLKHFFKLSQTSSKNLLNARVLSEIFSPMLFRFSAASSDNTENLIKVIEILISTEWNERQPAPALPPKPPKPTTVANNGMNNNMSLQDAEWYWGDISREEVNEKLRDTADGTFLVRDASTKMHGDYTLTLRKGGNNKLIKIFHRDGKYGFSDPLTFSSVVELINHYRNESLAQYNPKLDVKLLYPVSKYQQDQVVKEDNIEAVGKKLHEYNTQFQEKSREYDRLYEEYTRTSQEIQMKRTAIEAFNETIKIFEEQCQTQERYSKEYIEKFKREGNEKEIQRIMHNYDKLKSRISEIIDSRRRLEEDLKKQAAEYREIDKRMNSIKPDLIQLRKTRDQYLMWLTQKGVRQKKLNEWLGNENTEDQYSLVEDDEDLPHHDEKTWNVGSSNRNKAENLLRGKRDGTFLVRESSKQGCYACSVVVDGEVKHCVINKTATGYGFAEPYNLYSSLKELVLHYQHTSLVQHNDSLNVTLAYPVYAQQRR
Reported IC50 values are given for each entry in this list.

{"COMPOUND": "CNC(=O)[C@@H](C)Cn1cnc2ccc(-c3cnc(OC)c(NS(=O)(=O)c4ccccc4F)c3)cc2c1=O", "IC50": "97.3 nM"}
{"COMPOUND": "CNC(=O)C(C)Cn1cnc2ccc(-c3cnc(OC)c(NS(=O)(=O)c4sccc4C)c3)cc2c1=O (single isomer, unassigned)", "IC50": "176 nM"}
{"COMPOUND": "CNC[C@H](C)Cn1cnc2ccc(-c3cnc(OC)c(NS(=O)(=O)c4ccc(F)cc4Cl)c3)cc2c1=O [R009, reference compound]", "IC50": "108 nM"}
{"COMPOUND": "CNC(=O)C(C)Cn1cnc2ccc(-c3cnc(OC)c(NS(=O)(=O)c4ccc(F)c(Cl)c4)c3)cc2c1=O (single isomer, unassigned) [WX167]", "IC50": "159 nM"}
{"COMPOUND": "CNC(=O)C1(Cn2cnc3ccc(-c4cnc(OC)c(NS(=O)(=O)c5ccc(F)cc5Cl)c4)cc3c2=O)CC1", "IC50": "88.5 nM"}
{"COMPOUND": "CNC(=O)C(C)Cn1cnc2ccc(-c3cnc(OC)c(NS(=O)(=O)c4cc(Cl)c(F)cc4F)c3)cc2c1=O (single isomer, unassigned)", "IC50": "390 nM"}
{"COMPOUND": "Cc1ncc(-c2ccc3ncn(CCN(C)C)c(=O)c3c2)cc1NS(=O)(=O)c1ccc(F)cc1Cl [R010, reference compound]", "IC50": "345 nM"}
{"COMPOUND": "CNC(=O)[C@H](C)Cn1cnc2ccc(-c3cnc(OC)c(NS(=O)(=O)c4cc(Cl)ccc4Cl)c3)cc2c1=O", "IC50": "73.3 nM"}
{"COMPOUND": "COc1ncc(-c2ccc3ncn(CC(C)C(=O)O)c(=O)c3c2)cc1NS(=O)(=O)c1ccc(F)cc1Cl (single isomer, unassigned) [R002, reference compound]", "IC50": "1060 nM"}
{"COMPOUND": "CNC(=O)C(C)Cn1cnc2ccc(-c3cnc(OC)c(NS(=O)(=O)c4cccc(C)c4F)c3)cc2c1=O (single isomer, unassigned) [WX220]", "IC50": "139 nM"}
{"COMPOUND": "CNC(=O)C(C)Cn1cnc2c(F)cc(-c3cnc(OC)c(NS(=O)(=O)c4ccc(F)cc4Cl)c3)cc2c1=O (single isomer, unassigned)", "IC50": "1150 nM"}
{"COMPOUND": "COC(=O)C(C)Cn1cnc2ccc(-c3cnc(OC)c(NS(=O)(=O)c4ccc(F)cc4Cl)c3)cc2c1=O (single isomer, unassigned) [R005, reference compound]", "IC50": "100 nM"}
{"COMPOUND": "COc1ncc(-c2ccc3ncn(CCN(C)C)c(=O)c3c2)cc1NS(=O)(=O)c1ccc(F)cc1 [R011, reference compound]", "IC50": "168 nM"}

* * *

pIC50: −log10 of the molar value.
Below are pIC50 values measured for PI3Kγ (Homo sapiens, UniProt P48736).
REPORTED PROPERTY: pIC50

{"COMPOUND": "CNC(=O)C(C)Cn1cnc2ccc(-c3cnc(OC)c(NS(=O)(=O)c4cc(Cl)ccc4C)c3)cc2c1=O (single isomer, unassigned) [WX222]", "ASSAY SYSTEM": "PI3Kγ (Homo sapiens, UniProt P48736)", "RECORDED MEASUREMENT": 7.53}
{"COMPOUND": "CNC(=O)C(C)Cn1cnc2ccc(-c3cnc(C)c(NS(=O)(=O)c4sc(C)nc4C)c3)cc2c1=O (single isomer, unassigned) [WX034]", "ASSAY SYSTEM": "PI3Kγ (Homo sapiens, UniProt P48736)", "RECORDED MEASUREMENT": 7.52}
{"COMPOUND": "COc1ncc(-c2ccc3ncn(CC(C)C(=O)O)c(=O)c3c2)cc1NS(=O)(=O)c1ccc(F)cc1Cl (single isomer, unassigned) [R003, reference compound]", "ASSAY SYSTEM": "PI3Kγ (Homo sapiens, UniProt P48736)", "RECORDED MEASUREMENT": 8.28}

* * *

- ASSAY SYSTEM: PI3Kδ (Homo sapiens, UniProt O00329)
- Construct: purchased Millipore 14-604-K
- Sequence (O00329 whole entry): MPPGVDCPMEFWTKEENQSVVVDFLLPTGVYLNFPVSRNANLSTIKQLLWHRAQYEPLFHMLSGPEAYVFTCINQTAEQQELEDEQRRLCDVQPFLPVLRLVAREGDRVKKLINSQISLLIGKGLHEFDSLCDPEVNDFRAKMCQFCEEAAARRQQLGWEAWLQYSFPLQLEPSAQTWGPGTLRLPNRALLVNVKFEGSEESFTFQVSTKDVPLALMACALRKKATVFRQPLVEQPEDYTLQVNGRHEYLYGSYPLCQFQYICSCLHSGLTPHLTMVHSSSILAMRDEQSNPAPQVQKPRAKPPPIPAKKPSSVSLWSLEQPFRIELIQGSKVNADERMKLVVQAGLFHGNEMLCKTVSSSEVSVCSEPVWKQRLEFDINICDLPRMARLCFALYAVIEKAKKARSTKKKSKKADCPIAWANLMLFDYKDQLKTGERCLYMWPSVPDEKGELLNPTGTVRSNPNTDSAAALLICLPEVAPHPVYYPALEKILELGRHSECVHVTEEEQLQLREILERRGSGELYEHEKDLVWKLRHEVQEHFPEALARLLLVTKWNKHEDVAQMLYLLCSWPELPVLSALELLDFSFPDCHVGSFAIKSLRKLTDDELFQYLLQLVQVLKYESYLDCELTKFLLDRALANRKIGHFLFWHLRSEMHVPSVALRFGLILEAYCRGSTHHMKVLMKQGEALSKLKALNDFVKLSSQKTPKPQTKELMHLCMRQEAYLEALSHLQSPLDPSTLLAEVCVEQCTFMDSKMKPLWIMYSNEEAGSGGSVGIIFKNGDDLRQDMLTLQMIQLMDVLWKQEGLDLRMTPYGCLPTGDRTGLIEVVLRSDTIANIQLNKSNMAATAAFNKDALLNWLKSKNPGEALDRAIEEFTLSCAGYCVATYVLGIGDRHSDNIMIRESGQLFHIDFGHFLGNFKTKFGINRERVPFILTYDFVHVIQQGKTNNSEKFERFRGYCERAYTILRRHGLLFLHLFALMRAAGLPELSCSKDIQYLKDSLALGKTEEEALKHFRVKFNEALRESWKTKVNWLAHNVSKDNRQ
- Sequence (P27986 whole entry partner): as the sequence (P27986 whole entry partner) above
- PROTOCOL TEXT: In vitro test of enzyme activity (ADP-Glo lipokinase), PI3K delta
- Format: biochemical
- REPORTED CONDITIONS: 40 μM ATP, 50 μM PIP2:3PS, 120 min
REPORTED PROPERTY: log10(IC50) (log10 of the value in nM)

{"COMPOUND": "COCCNC(=O)C(C)Cn1cnc2ccc(-c3cnc(OC)c(NS(=O)(=O)c4ccc(F)cc4Cl)c3)cc2c1=O (single isomer, unassigned) [WX065]", "log10(IC50)": 1.47}
{"COMPOUND": "CNC(=O)[C@H]1C[C@H](n2cnc3ccc(-c4cnc(C)c(NS(=O)(=O)c5ccc(F)cc5Cl)c4)cc3c2=O)C1", "log10(IC50)": 0.72}
{"COMPOUND": "COc1ncc(-c2ccc3ncn(CC(N)C(N)=O)c(=O)c3c2)cc1NS(=O)(=O)c1ccc(F)cc1Cl (stereo not shown)", "log10(IC50)": 1.41}
{"COMPOUND": "CCC(CC)NC(=O)C(C)Cn1cnc2ccc(-c3cnc(OC)c(NS(=O)(=O)c4ccc(F)cc4Cl)c3)cc2c1=O (single isomer, unassigned) [WX056]", "log10(IC50)": 1.79}
{"COMPOUND": "CNC(=O)C(C)Cn1cnc2ccc(-c3cnc(CO)c(NS(=O)(=O)c4ccc(F)cc4Cl)c3)cc2c1=O (single isomer, unassigned) [WX062]", "log10(IC50)": 2.73}
{"COMPOUND": "CNC(=O)C(C)Cn1cnc2ccc(-c3cnc(C)c(NS(=O)(=O)c4sc(C)nc4C)c3)cc2c1=O (single isomer, unassigned) [WX034]", "log10(IC50)": 1.06}
{"COMPOUND": "CNC(=O)C(C)Cn1cnc2ccc(-c3cnc(C)c(NS(=O)(=O)c4sc(C)nc4C)c3)cc2c1=O (single isomer, unassigned) [WX035]", "log10(IC50)": 0.86}

* * *

- PROTOCOL TEXT: In vivo DMPK study in mice after a single administration
- Parameters: species or system female Balb/c mice
- REPORTED CONDITIONS: female, Balb/c, mouse, plasma, intravenous 1 mg/kg, read-out: Vd (apparent volume of distribution)
- Description: Experimental objective: female Balb/c mice were used as the test animals, and the blood concentration of the compound was determined and the pharmacokinetic behavior was evaluated after a single administration. Experimental operation: 12 healthy adult female Balb/c mice were selected, 6 for intravenous injection group and 6 for oral administration group. […]

{"ENTRY SMILES": "CNC(=O)CCCn1cnc2ccc(-c3cnc(OC)c(NS(=O)(=O)c4ccc(F)cc4Cl)c3)cc2c1=O", "Vd [L/kg]": 0.257}

* * *

- ASSAY SYSTEM: PI3Kα (Homo sapiens)
- Sequence (P42336 whole entry): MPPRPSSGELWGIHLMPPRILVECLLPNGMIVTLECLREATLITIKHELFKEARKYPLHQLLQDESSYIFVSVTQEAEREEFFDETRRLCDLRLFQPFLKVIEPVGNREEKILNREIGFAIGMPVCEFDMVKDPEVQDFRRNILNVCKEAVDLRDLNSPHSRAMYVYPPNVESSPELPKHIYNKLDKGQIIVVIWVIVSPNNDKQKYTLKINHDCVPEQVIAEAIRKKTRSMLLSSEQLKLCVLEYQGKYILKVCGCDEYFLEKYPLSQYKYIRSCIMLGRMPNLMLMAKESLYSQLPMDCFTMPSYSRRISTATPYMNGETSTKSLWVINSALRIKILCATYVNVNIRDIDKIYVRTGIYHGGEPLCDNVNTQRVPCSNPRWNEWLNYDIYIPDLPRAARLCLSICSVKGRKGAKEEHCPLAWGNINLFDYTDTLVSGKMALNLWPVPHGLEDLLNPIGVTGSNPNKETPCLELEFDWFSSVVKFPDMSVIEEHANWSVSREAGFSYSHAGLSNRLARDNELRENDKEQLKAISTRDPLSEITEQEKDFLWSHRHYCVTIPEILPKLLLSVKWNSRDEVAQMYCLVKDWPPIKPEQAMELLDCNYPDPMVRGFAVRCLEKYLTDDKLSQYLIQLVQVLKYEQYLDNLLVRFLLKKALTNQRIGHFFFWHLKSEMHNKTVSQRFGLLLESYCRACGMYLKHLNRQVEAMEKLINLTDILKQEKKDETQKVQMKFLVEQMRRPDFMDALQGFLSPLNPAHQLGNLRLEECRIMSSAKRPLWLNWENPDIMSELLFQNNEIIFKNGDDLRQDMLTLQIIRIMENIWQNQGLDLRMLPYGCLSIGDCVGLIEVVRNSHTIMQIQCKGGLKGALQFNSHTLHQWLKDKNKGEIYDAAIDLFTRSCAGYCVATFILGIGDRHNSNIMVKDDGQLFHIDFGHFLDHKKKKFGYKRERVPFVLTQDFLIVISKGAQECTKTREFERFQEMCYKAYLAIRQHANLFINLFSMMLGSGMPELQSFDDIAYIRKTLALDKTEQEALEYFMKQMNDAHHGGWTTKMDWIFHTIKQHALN
- Sequence (P27986 whole entry partner): as the sequence (P27986 whole entry partner) above
Friendly reminder: IC50 below 10 nM is satisfied, at or above is not satisfied.

{"COMPOUND": "COc1ncc(-c2ccc3ncn(CC(C)C(=O)O)c(=O)c3c2)cc1NS(=O)(=O)c1ccc(F)cc1Cl (single isomer, unassigned) [R002, reference compound]", "ASSAY SYSTEM": "PI3Kα (Homo sapiens)", "CLASS LABEL": "not satisfied"}
{"COMPOUND": "COc1ncc(-c2ccc3ncn(CC(C)C(=O)O)c(=O)c3c2)cc1NS(=O)(=O)c1ccc(F)cc1Cl (single isomer, unassigned) [R003, reference compound]", "ASSAY SYSTEM": "PI3Kα (Homo sapiens)", "CLASS LABEL": "satisfied"}
{"COMPOUND": "CNC(=O)[C@H](C)Cn1cnc2ccc(-c3cnc(OC)c(NS(=O)(=O)c4ccc(Cl)c(C)c4)c3)cc2c1=O [WX190]", "ASSAY SYSTEM": "PI3Kα (Homo sapiens)", "CLASS LABEL": "not satisfied"}
{"COMPOUND": "CCOC(=O)CCCn1cnc2ccc(-c3cnc(OC)c(NS(=O)(=O)c4ccc(F)cc4Cl)c3)cc2c1=O [R001, reference compound]", "ASSAY SYSTEM": "PI3Kα (Homo sapiens)", "CLASS LABEL": "satisfied"}
{"COMPOUND": "CNC[C@H](C)Cn1cnc2ccc(-c3cnc(OC)c(NS(=O)(=O)c4ccc(F)cc4Cl)c3)cc2c1=O [R009, reference compound]", "ASSAY SYSTEM": "PI3Kα (Homo sapiens)", "CLASS LABEL": "not satisfied"}
{"COMPOUND": "Cc1ncc(-c2ccc3ncn(CCN(C)C)c(=O)c3c2)cc1NS(=O)(=O)c1ccc(F)cc1Cl [R010, reference compound]", "ASSAY SYSTEM": "PI3Kα (Homo sapiens)", "CLASS LABEL": "not satisfied"}
{"COMPOUND": "COc1ncc(-c2ccc3ncn(CC(C)C(N)=O)c(=O)c3c2)cc1NS(=O)(=O)c1sc(C)nc1C (single isomer, unassigned) [WX025]", "ASSAY SYSTEM": "PI3Kα (Homo sapiens)", "CLASS LABEL": "satisfied"}
{"COMPOUND": "CNC(=O)C(C)Cn1cnc2ccc(-c3cnc(OC)c(NS(=O)(=O)c4cc(C(F)(F)F)cc(C(F)(F)F)c4)c3)cc2c1=O (single isomer, unassigned) [WX104]", "ASSAY SYSTEM": "PI3Kα (Homo sapiens)", "CLASS LABEL": "not satisfied"}
{"COMPOUND": "CNC(=O)C(C)Cn1cnc2ccc(-c3cnc(OC)c(NS(=O)(=O)c4ccc(F)c(Cl)c4)c3)cc2c1=O (single isomer, unassigned) [WX166]", "ASSAY SYSTEM": "PI3Kα (Homo sapiens)", "CLASS LABEL": "satisfied"}
{"COMPOUND": "COc1ncc(-c2ccc3ncn(CC(F)(F)C(N)=O)c(=O)c3c2)cc1NS(=O)(=O)c1ccc(F)cc1Cl [WX041]", "ASSAY SYSTEM": "PI3Kα (Homo sapiens)", "CLASS LABEL": "satisfied"}
{"COMPOUND": "CNC(=O)C(C)Cn1cnc2ccc(-c3cnc(OC)c(NS(=O)(=O)c4ccc(Cl)cc4C)c3)cc2c1=O (single isomer, unassigned) [WX217]", "ASSAY SYSTEM": "PI3Kα (Homo sapiens)", "CLASS LABEL": "satisfied"}
{"COMPOUND": "CNC(=O)[C@H]1C[C@H](n2cnc3ccc(-c4cnc(C)c(NS(=O)(=O)c5ccc(F)cc5Cl)c4)cc3c2=O)C1 [WX013]", "ASSAY SYSTEM": "PI3Kα (Homo sapiens)", "CLASS LABEL": "satisfied"}
{"COMPOUND": "CNC[C@@H](C)Cn1cnc2ccc(-c3cnc(OC)c(NS(=O)(=O)c4ccc(F)cc4Cl)c3)cc2c1=O [R008, reference compound]", "ASSAY SYSTEM": "PI3Kα (Homo sapiens)", "CLASS LABEL": "not satisfied"}
{"COMPOUND": "CNC(=O)C(C)Cn1cnc2ccc(-c3cnc(OC)c(NS(=O)(=O)c4cc(F)cc(F)c4)c3)cc2c1=O (single isomer, unassigned) [WX193]", "ASSAY SYSTEM": "PI3Kα (Homo sapiens)", "CLASS LABEL": "not satisfied"}
{"COMPOUND": "CNC(=O)C(C)Cn1cnc2ccc(-c3cnc(OC)c(NS(=O)(=O)c4ccc(F)c(Cl)c4)c3)cc2c1=O (single isomer, unassigned) [WX167]", "ASSAY SYSTEM": "PI3Kα (Homo sapiens)", "CLASS LABEL": "not satisfied"}
{"COMPOUND": "COC(=O)C(C)Cn1cnc2ccc(-c3cnc(OC)c(NS(=O)(=O)c4ccc(F)cc4Cl)c3)cc2c1=O (single isomer, unassigned) [R005, reference compound]", "ASSAY SYSTEM": "PI3Kα (Homo sapiens)", "CLASS LABEL": "satisfied"}
{"COMPOUND": "Cc1nc(C)c(S(=O)(=O)Nc2cc(-c3ccc4ncn(CCCC(=O)NC(C)C)c(=O)c4c3)cnc2C)s1 [WX006]", "ASSAY SYSTEM": "PI3Kα (Homo sapiens)", "CLASS LABEL": "satisfied"}
{"COMPOUND": "COc1ncc(-c2ccc3ncn(CCC(N)=O)c(=O)c3c2)cc1NS(=O)(=O)c1ccc(F)cc1Cl [WX001]", "ASSAY SYSTEM": "PI3Kα (Homo sapiens)", "CLASS LABEL": "satisfied"}
{"COMPOUND": "CNC(=O)C(C)Cn1cnc2ccc(-c3cnc(C)c(NS(=O)(=O)c4sc(C)nc4C)c3)cc2c1=O (single isomer, unassigned) [WX035]", "ASSAY SYSTEM": "PI3Kα (Homo sapiens)", "CLASS LABEL": "satisfied"}
{"COMPOUND": "COc1ncc(-c2ccc3ncn(CC4(C(N)=O)CC4)c(=O)c3c2)cc1NS(=O)(=O)c1ccc(F)cc1Cl [WX023]", "ASSAY SYSTEM": "PI3Kα (Homo sapiens)", "CLASS LABEL": "satisfied"}
{"COMPOUND": "COc1ncc(-c2ccc3ncn(CC(C)C(=O)NCCF)c(=O)c3c2)cc1NS(=O)(=O)c1ccc(F)cc1Cl (single isomer, unassigned) [WX066]", "ASSAY SYSTEM": "PI3Kα (Homo sapiens)", "CLASS LABEL": "satisfied"}
{"COMPOUND": "CNC(=O)[C@@H](C)Cn1cnc2ccc(-c3cnc(OC)c(NS(=O)(=O)c4c(Cl)cccc4Cl)c3)cc2c1=O [WX207]", "ASSAY SYSTEM": "PI3Kα (Homo sapiens)", "CLASS LABEL": "satisfied"}
{"COMPOUND": "CNC(=O)C(C)Cn1cnc2ccc(-c3cnc(OC)c(NS(=O)(=O)c4cc(C)ccc4Cl)c3)cc2c1=O (single isomer, unassigned) [WX214]", "ASSAY SYSTEM": "PI3Kα (Homo sapiens)", "CLASS LABEL": "satisfied"}
{"COMPOUND": "CNC(=O)C(C)Cn1cnc2ccc(-c3cnc(OC)c(NS(=O)(=O)c4cc(C(F)(F)F)cc(C(F)(F)F)c4)c3)cc2c1=O (single isomer, unassigned) [WX103]", "ASSAY SYSTEM": "PI3Kα (Homo sapiens)", "CLASS LABEL": "not satisfied"}
